Hey, just so you know, these numbers are from the supplement of paper PMC3545927.

system-tested: furin, P09958;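 further: purified furin at 1:10 enzyme:substrate in 50 mM HEPES pH 7.5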
Sequence (P09958 whole entry): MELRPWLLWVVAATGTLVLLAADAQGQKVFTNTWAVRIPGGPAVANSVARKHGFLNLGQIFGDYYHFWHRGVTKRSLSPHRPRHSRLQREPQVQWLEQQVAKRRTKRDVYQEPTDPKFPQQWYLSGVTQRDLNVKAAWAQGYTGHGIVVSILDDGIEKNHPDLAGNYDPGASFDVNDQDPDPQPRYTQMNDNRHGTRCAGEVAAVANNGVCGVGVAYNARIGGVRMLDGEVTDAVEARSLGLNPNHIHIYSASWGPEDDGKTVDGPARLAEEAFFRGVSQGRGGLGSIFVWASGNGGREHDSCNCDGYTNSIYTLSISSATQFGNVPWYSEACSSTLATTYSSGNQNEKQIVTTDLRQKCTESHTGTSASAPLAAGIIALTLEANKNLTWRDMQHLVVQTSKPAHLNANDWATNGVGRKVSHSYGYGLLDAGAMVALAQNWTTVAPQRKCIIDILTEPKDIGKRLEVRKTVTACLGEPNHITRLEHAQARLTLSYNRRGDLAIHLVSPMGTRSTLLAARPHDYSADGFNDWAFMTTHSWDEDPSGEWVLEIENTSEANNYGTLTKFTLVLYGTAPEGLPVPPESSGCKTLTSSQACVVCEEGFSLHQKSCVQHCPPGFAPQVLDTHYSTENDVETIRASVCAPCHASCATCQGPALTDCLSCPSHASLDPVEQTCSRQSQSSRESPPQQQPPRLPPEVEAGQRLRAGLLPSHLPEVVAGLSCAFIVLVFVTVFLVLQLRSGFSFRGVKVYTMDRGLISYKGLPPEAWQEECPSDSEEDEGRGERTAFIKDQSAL
procedure-details: furin cleavage Z-score vs untreated control; higher = more cleavage, active = 3.5 or more, inactive = 1 or less, 8 variable residues between constant flanks
condition: 30 min
The other results are listed elsewhere or left out. The hit rate among all sequences tested is not known here.
Some sequences, each annotated with its measured furin cleavage Z-score.

{"sequence-input": "CALPGCSFSIAGNASASA [HC245]", "furin cleavage Z-score": 1.53}
{"sequence-input": "CARGPRSSSAAGNASASA [FS-1712]", "furin cleavage Z-score": -1.14}
{"sequence-input": "CATDCFRKHPAGNASASA [HC452]", "furin cleavage Z-score": 1.34}
{"sequence-input": "CAVYCCSMSYAGNASASA [HC2009]", "furin cleavage Z-score": -1.22}
{"sequence-input": "CAAREVPCHRAGNASASA [HC2423]", "furin cleavage Z-score": 1.67}
{"sequence-input": "CAGSRRWGRYAGNASASA [FS-167]", "furin cleavage Z-score": 2.01}
{"sequence-input": "CALMTHFFSVAGNASASA [HC1583]", "furin cleavage Z-score": -1.85}
